This section presents compounds with their documented pKi values.
# Target desc: Human NPY Y1 receptors (Homo sapiens)
# Construct: expressed in transfected cells; host or cells: CHO cells (membrane protein)
# Sequence (P25929 whole entry): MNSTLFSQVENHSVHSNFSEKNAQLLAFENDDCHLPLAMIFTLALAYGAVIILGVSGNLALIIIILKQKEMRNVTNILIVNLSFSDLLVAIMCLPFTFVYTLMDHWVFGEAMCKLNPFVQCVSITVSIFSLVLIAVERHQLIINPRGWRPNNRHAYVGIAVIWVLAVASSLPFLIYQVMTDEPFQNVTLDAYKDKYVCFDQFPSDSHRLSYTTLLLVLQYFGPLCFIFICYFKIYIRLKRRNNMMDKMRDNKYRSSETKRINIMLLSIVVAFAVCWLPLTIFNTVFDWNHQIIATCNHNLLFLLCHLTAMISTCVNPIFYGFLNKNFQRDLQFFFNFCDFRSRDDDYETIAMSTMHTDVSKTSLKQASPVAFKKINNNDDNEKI
# Method notes: NPY Receptor Binding Assay
# Experimental parameters: Procedure E compounds, rated A/B/C
pKi: −log10 of the molar value.

Example entries and their recorded answers appear below.
Clc1cc2nc(NCCc3ccc(N=C4NCCCS4)cc3)sc2cc1Cl [Example 72] :: > 6.00
CCCCC1CS/C(=N\c2ccc(CCNc3nc4ccc(C)cc4s3)cc2)N1 (stereo not shown) [Example 92] :: 5.00 to 6.00
CC1(C)CS/C(=N\c2ccc(CCNc3nc4ccc(S(C)(=O)=O)cc4s3)cc2)N1 [Example 118] :: 5.00 to 6.00

// next entry
Consider CCC1CS/C(=N\c2ccc(CCNc3nc4ccc(OC)cc4s3)cc2)N1 (stereo not shown) [Example 84] . Its measured pKi is > 6.00
